Structures can show the parent of a compound that is named as a salt.
Here the recorded melting point is given for each entry.

See these solved cases before continuing.
[[record]]
compound = "Oc1ccc(Nc2nc(NCc3ccco3)nc(Oc3ccc(O)cc3)n2)cc1"
assay_readout = "melting point"
test_value = "80 to 83 °C"

[[record]]
compound = "Fc1ccc(CNc2nc(OCC(F)(F)F)nc(Oc3cccc(C(F)(F)F)c3)n2)cc1"
assay_readout = "melting point"
test_value = "107 to 109 °C"

[[record]]
compound = "FC(F)(F)c1cccc(Nc2nc(NCc3ccco3)nc(OCc3ccncc3)n2)c1"
assay_readout = "melting point"
test_value = "124 to 126 °C"


// melting point lookup, key: Fc1ccc(CNc2nc(Nc3cccc(Cl)c3)nc(OCC(F)(F)F)n2)cc1
148 to 150 °C

Sample Cc1ccc(CNc2nc(OCC(F)(F)F)nc(Oc3cccc(C(F)(F)F)c3)n2)o1 — what was its melting point?
116 to 118 °C

Quick one: melting point for Oc1nc(NCc2ccc(F)cc2)nc(Nc2cccc(C(F)(F)F)c2)n1 ?
266 to 268 °C

Record request: melting point value, item Fc1ccc(CNc2nc(NCc3ccccc3F)nc(OCC(F)(F)F)n2)cc1
105 to 107 °C

Find the recorded melting point belonging to CC(C)N1CCC(Nc2nc(NCc3ccc(F)cc3)nc(OCC(F)(F)F)n2)C1 (stereo not drawn) and report it.
98 to 99 °C

Give its melting point value. Item: CCNc1nc(NCCN2CCCC2)nc(Nc2ccc(OC)cc2)n1 (as salt: hydrochloride)
29 to 31 °C

For the compound shown here, Fc1ccc(CNc2nc(OCC(F)(F)F)nc(-c3ccccc3)n2)cc1 , give the reported melting point.
170 to 172 °C

Tell me the measured melting point of Fc1ccc(CNc2nc(OCc3ccccc3)nc(OCC(F)(F)F)n2)cc1 , please.
101 to 103 °C

Given the compound CCOc1nc(NCc2ccco2)nc(N2CCN(Cc3ccccn3)CC2)n1 , what is its reported melting point?
115 to 117 °C
